Target: CDK14 (human)
Assay: KINOMEscan competition binding
Details: compound 10.0 µM
Answer each item with its documented kinase still bound, per cent of control.
One number for each entry, in %.

Worked set:
O=c1cc(N2CCOCC2)oc2c(-c3cccc4c3sc3ccccc34)cccc12; 100
CNC(=O)c1cc(Oc2ccc(NC(=O)Nc3ccc(Cl)c(C(F)(F)F)c3)cc2)ccn1; 8.6
C=CC(=O)Nc1cc(-n2c(=O)ccc3cnc4ccc(-c5cn[nH]c5)cc4c32)ccc1C; 60
COCC(=O)NC/C=C/c1ccc2ncnc(Nc3ccc(Oc4ccc(C)nc4)c(C)c3)c2c1; 100
COc1cc(N2CCN(C)CC2)ccc1Nc1ncc2c(n1)N(C)c1ccccc1C(=O)N2C; 100

For every listed record, write down its kinase still bound, per cent of control.
1. Cc1n[nH]c2ccc(-c3cncc(OC[C@@H](N)Cc4c[nH]c5ccccc45)c3)cc12
2. COc1ccc(N(C(=O)Oc2c(C)cccc2C)c2ccnc(Nc3ccc(N4CCN(C)CC4)cc3)n2)c(OC)c1
3. N#CCNC(=O)c1ccc(-c2ccnc(Nc3ccc(N4CCOCC4)cc3)n2)cc1

[9.8, 93, 76]

Requested read-out kinase still bound, per cent of control, target or system CDK14 (human), entry CNC(=O)c1ccc(Nc2cc(Nc3ccccc3S(=O)(=O)C(C)C)c3cc[nH]c3n2)nc1
100

* * *

Answer each item with its documented kinase still bound, per cent of control.
Target: ACVR1 (human)
Assay: KINOMEscan competition binding
Conditions: compound 10.0 µM
Answers are plain numbers, in %.

Worked set:
C[C@@H](Oc1cc(-c2cnn(C3CCNCC3)c2)cnc1N)c1c(Cl)ccc(F)c1Cl; 0.6
O=C(Nc1cccc(Nc2ncc(Br)c(NCCc3cnc[nH]3)n2)c1)N1CCCC1; 76
CS(=O)(=O)N1CCN(Cc2cc3nc(-c4cccc5[nH]ncc45)nc(N4CCOCC4)c3s2)CC1; 100

Shifting focus to the molecule that follows.
Consider the molecule O=c1cc(N2CCOCC2)oc2c(-c3cccc4c3sc3ccccc34)cccc12 and give its measured kinase still bound, per cent of control.
91

* * *

Answer each item with its documented kinase still bound, per cent of control.
Target: CDK7 (human)
Experiment: KINOMEscan competition binding
Settings: compound 10.0 µM
Answers are plain numbers, in %.

Worked set:
COCC(=O)NC/C=C/c1ccc2ncnc(Nc3ccc(Oc4ccc(C)nc4)c(C)c3)c2c1; 100
CNC(=O)c1cc(Oc2ccc(NC(=O)Nc3ccc(Cl)c(C(F)(F)F)c3)cc2)ccn1; 4.2
C=CC(=O)Nc1ccc(CN(C(=O)Nc2c(Cl)c(OC)cc(OC)c2Cl)c2cc(Nc3ccc(N4CCN(C)CC4)cc3)ncn2)cc1; 100

For every listed record, write down its kinase still bound, per cent of control.
1. N#CCNC(=O)c1ccc(-c2ccnc(Nc3ccc(N4CCOCC4)cc3)n2)cc1
2. CS(=O)(=O)N1CCN(Cc2cc3nc(-c4cccc5[nH]ncc45)nc(N4CCOCC4)c3s2)CC1
3. CCN(CC)CCCCNc1ncc2cc(-c3cc(OC)cc(OC)c3)c(NC(=O)NC(C)(C)C)nc2n1
4. COc1cc(C(=O)N2CCC(N3CCN(C)CC3)CC2)ccc1Nc1ncc2c(n1)N(C)c1ccccc1C(=O)N2C

1. 3.8
2. 100
3. 100
4. 86

For every listed record, write down its kinase still bound, per cent of control.
1. COc1cc(N2CCN(C)CC2)ccc1Nc1ncc2c(n1)N(C)c1ccccc1C(=O)N2C
2. COc1cc2ncnc(-n3nc(-c4ccccn4)nc3N)c2cc1OC

100
5.4

* * *

Molecular target: UniProt Q86UE8
Sequence (Q86UE8 whole entry, looked up): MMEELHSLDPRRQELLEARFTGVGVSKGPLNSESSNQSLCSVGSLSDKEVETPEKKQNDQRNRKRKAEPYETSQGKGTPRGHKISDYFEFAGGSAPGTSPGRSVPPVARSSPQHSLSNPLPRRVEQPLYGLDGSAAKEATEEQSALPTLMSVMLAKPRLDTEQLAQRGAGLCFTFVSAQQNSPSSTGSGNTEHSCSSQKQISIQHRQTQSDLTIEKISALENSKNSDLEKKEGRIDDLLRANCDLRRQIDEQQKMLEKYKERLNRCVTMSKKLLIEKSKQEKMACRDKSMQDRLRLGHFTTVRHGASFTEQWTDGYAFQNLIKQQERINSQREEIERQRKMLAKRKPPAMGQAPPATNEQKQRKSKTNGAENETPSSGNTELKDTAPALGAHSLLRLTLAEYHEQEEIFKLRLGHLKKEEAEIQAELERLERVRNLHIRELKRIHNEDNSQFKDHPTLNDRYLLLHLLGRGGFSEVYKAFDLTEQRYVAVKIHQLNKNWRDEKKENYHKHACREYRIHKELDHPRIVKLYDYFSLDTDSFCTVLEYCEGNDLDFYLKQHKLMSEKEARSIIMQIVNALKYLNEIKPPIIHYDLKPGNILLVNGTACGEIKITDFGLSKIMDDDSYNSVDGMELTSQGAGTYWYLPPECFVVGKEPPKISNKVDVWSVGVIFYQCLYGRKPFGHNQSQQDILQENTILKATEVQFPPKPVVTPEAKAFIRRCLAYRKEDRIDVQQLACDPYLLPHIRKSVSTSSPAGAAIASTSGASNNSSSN
Experiment: KINOMEscan competition binding
Details: compound 10.0 µM
Answer each item with its documented kinase still bound, per cent of control.
Numbers only, in %.

O=C1NC(=O)/C(=C/c2ccc3nccc(-c4ccncc4)c3c2)S1; 87

For every listed record, write down its kinase still bound, per cent of control.
1. N#CCNC(=O)c1ccc(-c2ccnc(Nc3ccc(N4CCOCC4)cc3)n2)cc1
2. Cc1n[nH]c2ccc(-c3cncc(OC[C@@H](N)Cc4c[nH]c5ccccc45)c3)cc12
3. C=CC(=O)Nc1ccc(CN(C(=O)Nc2c(Cl)c(OC)cc(OC)c2Cl)c2cc(Nc3ccc(N4CCN(C)CC4)cc3)ncn2)cc1
4. CCN(CC)CCCCNc1ncc2c(n1)N(C)C(=O)N(c1c(Cl)c(OC)cc(OC)c1Cl)C2

[88, 100, 100, 100]

* * *

Target: CAMKK2 (human)
Assay: KINOMEscan competition binding
Details: compound 10.0 µM
Measurement kind: kinase still bound, per cent of control (%)
Answers are plain numbers, in %.

C=CC(=O)Nc1ccc(CN(C(=O)Nc2c(Cl)c(OC)cc(OC)c2Cl)c2cc(Nc3ccc(N4CCN(C)CC4)cc3)ncn2)cc1; 100

For every listed record, write down its kinase still bound, per cent of control.
1. C=CC(=O)Nc1cc(-n2c(=O)ccc3cnc4ccc(-c5cn[nH]c5)cc4c32)ccc1C
2. N#CCNC(=O)c1ccc(-c2ccnc(Nc3ccc(N4CCOCC4)cc3)n2)cc1

[49, 51]

For every listed record, write down its kinase still bound, per cent of control.
1. COCC(=O)NC/C=C/c1ccc2ncnc(Nc3ccc(Oc4ccc(C)nc4)c(C)c3)c2c1
2. O=c1cc(N2CCOCC2)oc2c(-c3cccc4c3sc3ccccc34)cccc12

1. 85
2. 88

* * *

Biological target: ITK (human) (UniProt Q08881)
Sequence (Q08881 whole entry, looked up): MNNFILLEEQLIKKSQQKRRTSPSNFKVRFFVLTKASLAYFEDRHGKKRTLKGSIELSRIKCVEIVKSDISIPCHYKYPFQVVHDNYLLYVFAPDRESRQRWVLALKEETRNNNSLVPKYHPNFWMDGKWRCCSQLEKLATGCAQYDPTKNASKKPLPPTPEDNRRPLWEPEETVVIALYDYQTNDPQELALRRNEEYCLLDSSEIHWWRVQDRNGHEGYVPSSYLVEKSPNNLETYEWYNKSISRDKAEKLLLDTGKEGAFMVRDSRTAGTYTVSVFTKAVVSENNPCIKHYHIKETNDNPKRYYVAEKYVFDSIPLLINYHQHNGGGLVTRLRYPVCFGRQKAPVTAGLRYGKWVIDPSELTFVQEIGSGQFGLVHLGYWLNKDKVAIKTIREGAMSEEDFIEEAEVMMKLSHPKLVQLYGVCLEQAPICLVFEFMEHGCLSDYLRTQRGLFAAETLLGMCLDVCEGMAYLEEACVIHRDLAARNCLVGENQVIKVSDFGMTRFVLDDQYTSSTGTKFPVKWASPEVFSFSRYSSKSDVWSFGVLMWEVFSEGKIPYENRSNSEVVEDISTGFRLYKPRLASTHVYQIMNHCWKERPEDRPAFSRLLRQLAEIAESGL
Assay: KINOMEscan competition binding
Conditions: compound 10.0 µM
Measurement kind: kinase still bound, per cent of control (%)
Numbers only, in %.

For every listed record, write down its kinase still bound, per cent of control.
1. O=c1cc(N2CCOCC2)oc2c(-c3cccc4c3sc3ccccc34)cccc12
2. COc1cc2ncnc(-n3nc(-c4ccccn4)nc3N)c2cc1OC
3. CCN1CCN(C(=O)Cc2ccc(Nc3ncc(F)c(Nc4ccc(C(=O)Nc5ccccc5Cl)cc4)n3)cc2)CC1
4. C=CC(=O)Nc1cc(-n2c(=O)ccc3cnc4ccc(-c5cn[nH]c5)cc4c32)ccc1C
5. Cc1n[nH]c2ccc(-c3cncc(OC[C@@H](N)Cc4c[nH]c5ccccc45)c3)cc12
6. CCN(CC)CCCCNc1ncc2c(n1)N(C)C(=O)N(c1c(Cl)c(OC)cc(OC)c1Cl)C2
7. COc1cc2ncn(-c3cc(OCc4ccccc4C(F)(F)F)c(C(N)=O)s3)c2cc1OC
8. CS(=O)(=O)N1CCN(Cc2cc3nc(-c4cccc5[nH]ncc45)nc(N4CCOCC4)c3s2)CC1

100
100
52
29
100
100
98
100

Consider the molecule CN(C)C/C=C/C(=O)Nc1ccc(C(=O)Nc2cccc(Nc3nccc(-c4cccnc4)n3)c2)cc1 and give its measured kinase still bound, per cent of control.
100

* * *

Target: MTOR (human)
Assay: KINOMEscan competition binding
Details: compound 10.0 µM
Measurement kind: kinase still bound, per cent of control (%)
Answers are plain numbers, in %.

For every listed record, write down its kinase still bound, per cent of control.
1. CCN1CCN(C(=O)Cc2ccc(Nc3ncc(F)c(Nc4ccc(C(=O)Nc5ccccc5Cl)cc4)n3)cc2)CC1
2. O=c1cc(N2CCOCC2)oc2c(-c3cccc4c3sc3ccccc34)cccc12
3. CN(C)C/C=C/C(=O)Nc1ccc(C(=O)Nc2cccc(Nc3nccc(-c4cccnc4)n3)c2)cc1
4. COCC(=O)NC/C=C/c1ccc2ncnc(Nc3ccc(Oc4ccc(C)nc4)c(C)c3)c2c1
5. COc1ccc(N(C(=O)Oc2c(C)cccc2C)c2ccnc(Nc3ccc(N4CCN(C)CC4)cc3)n2)c(OC)c1

1. 20
2. 18
3. 80
4. 79
5. 100

* * *

Target: PRKAA1 (human)
Assay: KINOMEscan competition binding
Conditions: compound 10.0 µM
Assign labels as follows, please: Satisfied for kinase still bound, per cent of control below 40%; Not satisfied for kinase still bound, per cent of control equal to or exceeding 40%.

COCC(=O)NC/C=C/c1ccc2ncnc(Nc3ccc(Oc4ccc(C)nc4)c(C)c3)c2c1; Not satisfied
CCN1CCN(C(=O)Cc2ccc(Nc3ncc(F)c(Nc4ccc(C(=O)Nc5ccccc5Cl)cc4)n3)cc2)CC1; Satisfied
C=CC(=O)Nc1cc(-n2c(=O)ccc3cnc4ccc(-c5cn[nH]c5)cc4c32)ccc1C; Not satisfied
COc1cc(N2CCN(C)CC2)ccc1Nc1ncc2c(n1)N(C)c1ccccc1C(=O)N2C; Not satisfied

Does the reported kinase still bound, per cent of control of O=C1NC(=O)/C(=C/c2ccc3nccc(-c4ccncc4)c3c2)S1 stay below 40%?
Not satisfied

Does the reported kinase still bound, per cent of control of O=C(Nc1cccc(Nc2ncc(Br)c(NCCc3cnc[nH]3)n2)c1)N1CCCC1 stay below 40%?
Satisfied

Does the reported kinase still bound, per cent of control of COc1cc(C(=O)N2CCC(N3CCN(C)CC3)CC2)ccc1Nc1ncc2c(n1)N(C)c1ccccc1C(=O)N2C stay below 40%?
Not satisfied

Does the reported kinase still bound, per cent of control of CNC(=O)c1ccc(Nc2cc(Nc3ccccc3S(=O)(=O)C(C)C)c3cc[nH]c3n2)nc1 stay below 40%?
Satisfied

Does the reported kinase still bound, per cent of control of C=CC(=O)Nc1ccc(CN(C(=O)Nc2c(Cl)c(OC)cc(OC)c2Cl)c2cc(Nc3ccc(N4CCN(C)CC4)cc3)ncn2)cc1 stay below 40%?
Not satisfied

Does the reported kinase still bound, per cent of control of NC(=O)Nc1cc(-c2cccc(F)c2)sc1C(=O)N[C@@H]1CCCNC1 stay below 40%?
Satisfied

Does the reported kinase still bound, per cent of control of CN(C)C/C=C/C(=O)Nc1ccc(C(=O)Nc2cccc(Nc3nccc(-c4cccnc4)n3)c2)cc1 stay below 40%?
Not satisfied

Does the reported kinase still bound, per cent of control of Cc1n[nH]c2ccc(-c3cncc(OC[C@@H](N)Cc4c[nH]c5ccccc45)c3)cc12 stay below 40%?
Not satisfied

Does the reported kinase still bound, per cent of control of CNC(=O)c1cc(Oc2ccc(NC(=O)Nc3ccc(Cl)c(C(F)(F)F)c3)cc2)ccn1 stay below 40%?
Not satisfied

Does the reported kinase still bound, per cent of control of COc1ccc(N(C(=O)Oc2c(C)cccc2C)c2ccnc(Nc3ccc(N4CCN(C)CC4)cc3)n2)c(OC)c1 stay below 40%?
Satisfied

Does the reported kinase still bound, per cent of control of CCN(CC)CCCCNc1ncc2c(n1)N(C)C(=O)N(c1c(Cl)c(OC)cc(OC)c1Cl)C2 stay below 40%?
Not satisfied

Does the reported kinase still bound, per cent of control of COc1cc2ncn(-c3cc(OCc4ccccc4C(F)(F)F)c(C(N)=O)s3)c2cc1OC stay below 40%?
Not satisfied

Does the reported kinase still bound, per cent of control of COc1cc2ncnc(-n3nc(-c4ccccn4)nc3N)c2cc1OC stay below 40%?
Satisfied

Data origin, for the record: the kinase profiling compilation of Christmann-Franck et al. (2016)
